test system: dengue virus type 2; experiment: Antiviral activity against DENV2 D2Y98P infected in human HuH7 cells assessed as inhibition of viral RNA replication incubated for 48 hrs by qRT-PCR method; format: functional, organism-based; details: Huh-7, 48 h

- molecule: "CN(C)CCCCOC(=O)Nc1ccc(Cn2nc(-c3ccc(C#N)cc3)c3ccccc3c2=O)cc1"
  IC50 [µM]: 0.7
- molecule: "CN(C)CCCCOC(=O)Nc1ccc(Cn2nc(-c3ccccc3)c3ccccc3c2=O)cc1"
  IC50 [µM]: 2.68
- molecule: "CN(C)CCCCOC(=O)Nc1ccc(Cn2nc(-c3ccc(C(F)(F)F)cc3)c3ccccc3c2=O)cc1"
  IC50 [µM]: 1.47
- molecule: "CN(C)CCCCOC(=O)Nc1ccc(Cn2nc(-c3cnn(C)c3)c3ccccc3c2=O)cc1"
  IC50 [µM]: 6.53
- molecule: "CN(C)CCCC(=O)Nc1ccc(Cn2nc(-c3ccc(F)cc3)c3ccccc3c2=O)cc1"
  IC50 [µM]: 1
- molecule: "CN(C)CCCCOC(=O)Nc1ccc(Cn2nc(-c3cccnc3)c3ccccc3c2=O)cc1"
  IC50 [µM]: 6.32
- molecule: "CN(C)CCCCOC(=O)Nc1ccc(Cn2nc(-c3cccc(F)c3)c3ccccc3c2=O)cc1"
  IC50 [µM]: 1.51
- molecule: "COc1ccc(-c2nn(Cc3ccc(NC(=O)OCCCCN(C)C)cc3)c(=O)c3ccccc23)cc1"
  IC50 [µM]: 1.94
- molecule: "COc1cccc(-c2nn(Cc3ccc(NC(=O)OCCCCN(C)C)cc3)c(=O)c3ccccc23)c1"
  IC50 [µM]: 0.34
- molecule: "CC(c1ccc(NC(=O)OCCCCN(C)C)cc1)n1nc(-c2ccc(F)cc2)c2ccccc2c1=O (configuration not stated)"
  IC50 [µM]: 1.27
- molecule: "CN(C)CCCCOC(=O)Nc1ccc(Cn2nc(-c3ccccc3C#N)c3ccccc3c2=O)cc1"
  IC50 [µM]: 5.52
- molecule: "CN(C)CCCCOC(=O)Nc1ccc(-n2nc(-c3ccc(F)cc3)c3ccccc3c2=O)cc1"
  IC50 [µM]: 1.34

Where these numbers come from: ChEMBL document CHEMBL4251649
